Target: CD3 on 293T-CD3 cells
Sequence (chain, as listed by the source): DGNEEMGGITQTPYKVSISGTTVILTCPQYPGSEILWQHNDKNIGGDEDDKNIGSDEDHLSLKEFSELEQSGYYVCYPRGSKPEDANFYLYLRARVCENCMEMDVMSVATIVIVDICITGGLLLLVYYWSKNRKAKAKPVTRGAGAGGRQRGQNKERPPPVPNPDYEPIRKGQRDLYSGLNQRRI
Assay: flow cytometry on 293T-CD3 cells
pEC50: −log10 of the molar value.
Label TRUE when pEC50 >= 8; otherwise FALSE.

BINDER	ASSIGNED CLASS
CD3 Ab11 (antibody, human IgG1, kappa, V domains shown, also called humanized anti-CD3 monoclonal antibody) VH: EVQLVESGGGLVQPGGSLRLSCAASGFTFNTYAMNWVRQAPGKGLEWVARIRSKYNNYATYYADSVKDRFTISRDDSKNILYLQMNSLKTEDTAMYYCVRHGNFGNSYVSWFAYWGQGTLVTVSA VL: QAVVTQEPSLTVSPGGTVTLTCRSSTGAVTTSNYANWVQQKPGQAPRGLIGGTNKRAPWTPARFSGSLLGGKAALTLSGAQPEDEAEYYCALWYSNLWVFGGGTKLTVLR	FALSE

Data request: Determine whether this binder has pEC50 no lower than 8: CD3 Ab05 (antibody, human IgG1, kappa, V domains shown, also called humanized anti-CD3 monoclonal antibody) VH: EVQLVESGGGLVQPGGSLRLSCAASGFTFNTYAMNWVRQAPGKGLEWVARIRSKYNNYATYYADSVKDRFTISRDDSKNSLYLQMNSLKTEDTAVYYCVRHGNFGNSYVSWFAYWGQGTLVTVSA VL: QAVVTQEPSLTVSPGGTVTLTCRSSTGAVTTSNYANWVQEKPGQAPRGLIGGTNKRAPWVPARFSGSLLGDKAALTLSGAQTEDEAEYYCALWYSNLWVFGGGTKLTVLR
Data returned: TRUE

Data request: Determine whether this binder has pEC50 no lower than 8: CD3 Ab15 (antibody, human IgG1, kappa, V domains shown, also called humanized anti-CD3 monoclonal antibody) VH: EVQLVESGGGLVQPGGSLRLSCAASGFTFNTYAMNWVRQAPGKGLEWVARIRSKYNNYATYYADSVKDRFTISRDDSKNILYLQMNSLKTEDTAMYYCVRHGNFGNSYVSWFAYWGQGTLVTVSA VL: QAVVTQEPSLTVSPGGTVTLTCRSSTGAVTTSNYANWVQEKPGQAPRGLIGGTNKRAPWVPARFSGSLLGDKAALTLSGAQTEDEAEYYCALWYSNLWVFGGGTKLTVLR
Data returned: TRUE

Data request: Determine whether this binder has pEC50 no lower than 8: CD3 Ab14 (antibody, human IgG1, kappa, V domains shown, also called humanized anti-CD3 monoclonal antibody) VH: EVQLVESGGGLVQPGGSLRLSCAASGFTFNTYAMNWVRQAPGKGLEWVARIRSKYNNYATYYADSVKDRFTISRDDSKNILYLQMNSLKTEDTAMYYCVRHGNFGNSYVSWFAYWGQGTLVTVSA VL: QAVVTQEPSLTVSPGGTVTLTCRSSTGAVTTSNYANWVQQKPGQAPRGLIGGTNKRAPWVPARFSGSLLGDKAALTLSGAQTEDEAEYYCALWYSNLWVFGGGTKLTVLR
Data returned: TRUE
